Assayed System: human BACE-1 (Homo sapiens)
Test Description: in vitro BACE Assay-1 (CEREP, fluorogenic substrate)
Assay type: biochemical
Condition Details: test compound at 1 μM
Property: inhibition at 1 µM (%)
Write down the numeric answer in % and omit the unit.

I would be grateful if you could share the reported inhibition at 1 µM for Cn1ccnc1CN(CCC(C)(C)C)C(=O)CCC(c1cc2cc(-c3cccs3)ccc2nc1N)C1CCOCC1 (stereo not shown) [Compound 31] . 79

I would be grateful if you could share the reported inhibition at 1 µM for Nc1nc2ccc(-c3ccccc3F)cc2cc1C(CCC(=O)NC12CC3CC(CC(C3)C1)C2)C1CCOCC1 (stereo not shown) [Compound 23] . 97

I would be grateful if you could share the reported inhibition at 1 µM for Nc1nc2ccc(-c3cccs3)cc2cc1C(CCC(=O)NC12CC3CC(CC(C3)C1)C2)C1CCOCC1 (stereo not shown) [Compound 21] . 87

I would be grateful if you could share the reported inhibition at 1 µM for COc1ccccc1-c1ccc2nc(N)c(C(CCCN(CCC(C)(C)C)c3nccn3C)C3CCOCC3)cc2c1 (stereo not shown) [Compound 36] . 76

---

Assayed System: human BACE-1 (Homo sapiens, UniProt P56817)
Sequence (P56817 46-501): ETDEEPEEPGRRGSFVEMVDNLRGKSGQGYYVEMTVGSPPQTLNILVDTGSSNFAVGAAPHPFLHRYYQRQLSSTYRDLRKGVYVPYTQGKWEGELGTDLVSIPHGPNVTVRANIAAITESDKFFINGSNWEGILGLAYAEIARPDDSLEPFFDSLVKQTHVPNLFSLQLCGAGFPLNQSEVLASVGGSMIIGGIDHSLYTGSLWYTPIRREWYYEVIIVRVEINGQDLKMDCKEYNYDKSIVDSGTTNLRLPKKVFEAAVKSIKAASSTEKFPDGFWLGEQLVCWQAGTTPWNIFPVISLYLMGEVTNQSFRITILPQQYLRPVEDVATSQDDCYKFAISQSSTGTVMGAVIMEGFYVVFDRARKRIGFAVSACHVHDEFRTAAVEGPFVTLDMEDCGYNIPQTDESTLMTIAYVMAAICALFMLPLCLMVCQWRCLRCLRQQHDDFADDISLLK
Test Description: in vitro BACE Assay-1 (CEREP, fluorogenic substrate)
Type: biochemical
Condition Details: test compound at 10 μM
Give inhibition at 10 µM for every item shown.
Write down the numeric answer in % and omit the unit.

I would be grateful if you could share the reported inhibition at 10 µM for CC(C)(C)CCN(CCN1CCOCC1)C(=O)CCC(c1cc2cc(-c3ccccc3F)ccc2nc1N)C1CCOCC1 (centres unmarked) . 58

I would be grateful if you could share the reported inhibition at 10 µM for CC(C)(CO)CNCCCC(c1cc2cc(-c3ccccc3F)ccc2nc1N)C1CCOCC1 (centres unmarked) . 43

I would be grateful if you could share the reported inhibition at 10 µM for CC(C)(C)OCCNC(=O)CCC(c1cc2cc(-c3ccccc3F)ccc2nc1N)C1CCOCC1 (centres unmarked) . 113

I would be grateful if you could share the reported inhibition at 10 µM for CC(C)(C)CCN(CCCC(c1cc2cc(-c3ccccc3F)ccc2nc1N)C1CCOCC1)Cc1ccccn1 (centres unmarked) . 74

I would be grateful if you could share the reported inhibition at 10 µM for COc1cc2nc(N)c(C(CCCNCCC(C)(C)C)C3CCOCC3)cc2cc1-c1ccccc1F (centres unmarked) . 88

I would be grateful if you could share the reported inhibition at 10 µM for CC(C)(C)OCCNCCCC(c1cc2cc(-c3ccccc3F)ccc2nc1N)C1CCOCC1 (centres unmarked) . 47

I would be grateful if you could share the reported inhibition at 10 µM for CC(C)(C)CCN(Cc1cncs1)C(=O)CCC(c1cc2cc(-c3ccccc3F)ccc2nc1N)C1CCOCC1 (centres unmarked) . 65

I would be grateful if you could share the reported inhibition at 10 µM for Cn1ccnc1N(CCC(C)(C)C)C(=O)CCC(c1cc2cc(-c3cccc(F)c3)ccc2nc1N)C1CCOCC1 (centres unmarked) . 69

---

Assayed System: human BACE-1 (Homo sapiens, UniProt P56817)
Test Description: in vitro BACE Assay-1 (CEREP, fluorogenic substrate)
Type: biochemical
Condition Details: test compound at 1 μM
Give % Inh @ 1 μM for every item shown.
Write down the numeric answer in % and omit the unit.

I would be grateful if you could share the reported % Inh @ 1 μM for Cn1ccnc1CN(CCCC(c1cc2cc(-c3ccccc3F)ccc2nc1N)C1CCOCC1)CCC(C)(C)C (stereo not shown) . 54

I would be grateful if you could share the reported % Inh @ 1 μM for CN(C(=O)CCC(c1cc2cc(-c3ccccc3F)ccc2nc1N)C1CCCCC1)C1CCCCC1 (single isomer, unassigned) . 28

I would be grateful if you could share the reported % Inh @ 1 μM for COc1ccccc1-c1ccc2nc(N)c(C(CCC(=O)N(CCC(C)(C)C)Cc3nccn3C)C3CCOCC3)cc2c1 (stereo not shown) . 94

I would be grateful if you could share the reported % Inh @ 1 μM for Cn1ccnc1CN(CCC(C)(C)C)C(=O)CCC(c1cc2cc(-c3ccccc3F)ccc2nc1N)C1CCOCC1 (stereo not shown) . 93

---

Assayed System: human BACE-1 (Homo sapiens)
Test Description: in vitro BACE Assay-1 (CEREP, fluorogenic substrate)
Format: biochemical
Condition Details: test compound at 10 μM
Property: % Inh @ 10 μM (%)
Write down the numeric answer in % and omit the unit.

I would be grateful if you could share the reported % Inh @ 10 μM for Cn1ccnc1CN(CCC(C)(C)C)C(=O)CCC(c1cc2cc(-c3ccccc3C(F)(F)F)ccc2nc1N)C1CCOCC1 (stereo not drawn) . 90

I would be grateful if you could share the reported % Inh @ 10 μM for Cn1ccnc1CN(CCC(C)(C)C)C(=O)CCC(c1cc2cc(-c3ccccc3OC(F)(F)F)ccc2nc1N)C1CCOCC1 (stereo not drawn) . 73

I would be grateful if you could share the reported % Inh @ 10 μM for Nc1nc2ccc(-c3ccccc3F)cc2cc1C(CCC(=O)NCC1CC1)C1CCOCC1 (stereo not drawn) . 59

I would be grateful if you could share the reported % Inh @ 10 μM for CN(CC1CC1)C(=O)CCC(c1cc2cc(-c3ccccc3F)ccc2nc1N)C1CCOCC1 (stereo not drawn) . 71

I would be grateful if you could share the reported % Inh @ 10 μM for Cn1ccnc1CN(CCC(C)(C)C)C(=O)CCC(c1cc2cc(-c3ccc[nH]3)ccc2nc1N)C1CCOCC1 (stereo not drawn) . 93

I would be grateful if you could share the reported % Inh @ 10 μM for Cn1ccnc1CN(CCC(C)(C)C)C(=O)CCC(c1cc2cc(-c3ccccc3)ccc2nc1N)C1CCOCC1 (stereo not drawn) . 72

---

Give inhibition at 10 µM for every item shown.
Assayed System: human BACE-1 (Homo sapiens, UniProt P56817)
Test Description: in vitro BACE Assay-1 (CEREP, fluorogenic substrate)
Assay type: biochemical
Condition Details: test compound at 10 μM
Text: This assay was run by CEREP (Catalog Ref. 761-B, Referred to SOP No. 1C131; ERMOLIEFF, J., LOY, J. A., KOELSCH, G. and TANG, J., Proteolytic activation of recombinant pro-memapsin 2 (pro-BACE) studied with new fluorogenic substrates, Biochemistry, (2000) Vol. 39, p. 12450). […]
Write down the numeric answer in % and omit the unit.

I would be grateful if you could share the reported inhibition at 10 µM for CCOc1ccccc1-c1ccc2nc(N)c(C(CCC(=O)N(CCC(C)(C)C)Cc3nccn3C)C3CCOCC3)cc2c1 (stereo not drawn) . 99

I would be grateful if you could share the reported inhibition at 10 µM for Nc1nc2ccc(-c3ccccc3F)cc2cc1C(CCC(=O)N(CCN1CCCC1)C1CCCCC1)C1CCOCC1 (stereo not drawn) . 65

I would be grateful if you could share the reported inhibition at 10 µM for Nc1nc2ccc(-c3ccccc3F)cc2cc1C(CCC(=O)NCC1CCCCC1)C1CCOCC1 (stereo not drawn) . 74.5

---

Assayed System: human BACE-1 (Homo sapiens)
Test Description: in vitro BACE Assay-1 (CEREP, fluorogenic substrate)
Condition Details: recombinant enzyme, pH 4.5, 60 min at 37° C.
Property: log10(IC50) (log10 of the value in nM)
On a log10 scale: recorded IC50, unit nM.

I would be grateful if you could share the reported log10(IC50) for COc1ccccc1-c1cc2cc(C(CCn3cc(C(C)(C)C)nn3)C3CCOCC3)c(N)nc2cc1OC (centres unmarked) . 2.95

I would be grateful if you could share the reported log10(IC50) for Nc1nc2ccc(-c3ccccc3F)cc2cc1C(CCC(=O)NCC1CCCCC1)C1CCOCC1 (centres unmarked) . 2.54

I would be grateful if you could share the reported log10(IC50) for Cn1ccnc1CN(CCCC(c1cc2cc(-c3ccccc3F)ccc2nc1N)C1CCOCC1)CCC(C)(C)C (centres unmarked) . 3.18

I would be grateful if you could share the reported log10(IC50) for COc1cc2nc(N)c(C(CCCN(CCN3CCOCC3)C3CCCCC3)C3CCOCC3)cc2cc1-c1ccccc1F (centres unmarked) . 3.56

I would be grateful if you could share the reported log10(IC50) for Nc1nc2ccc(-c3ccccc3F)cc2cc1C(CCC(=O)N(CCN1CCCC1)C1CCCCC1)C1CCOCC1 (centres unmarked) . 2.65

I would be grateful if you could share the reported log10(IC50) for COc1ccccc1-c1ccc2nc(N)c(C(CCCN(CCC(C)(C)C)c3nccn3C)C3CCOCC3)cc2c1 (centres unmarked) . 2.70

I would be grateful if you could share the reported log10(IC50) for CC(C)(C)CCN(Cc1ccccc1)C(=O)CCC(c1cc2cc(-c3ccccc3F)ccc2nc1N)C1CCOCC1 (centres unmarked) . 2.59

I would be grateful if you could share the reported log10(IC50) for Cn1ccnc1N(CCC(C)(C)C)C(=O)CCC(c1cc2cc(-c3cccc(F)c3)ccc2nc1N)C1CCOCC1 (centres unmarked) . 2.67

I would be grateful if you could share the reported log10(IC50) for COc1cc2nc(N)c(C(CCn3cc(C(C)(C)C)nn3)C3CCOCC3)cc2cc1-c1ccccc1F (centres unmarked) . 3.15

I would be grateful if you could share the reported log10(IC50) for Nc1nc2ccc(-c3cccs3)cc2cc1C(CCC(=O)NC12CC3CC(CC(C3)C1)C2)C1CCOCC1 (centres unmarked) . 2.84

I would be grateful if you could share the reported log10(IC50) for Nc1nc2ccc(-c3ccccc3F)cc2cc1C(CCC(=O)NC12CC3CC(CC(C3)C1)C2)C1CCOCC1 (centres unmarked) . 2.76

I would be grateful if you could share the reported log10(IC50) for CC(C)(C)CCN(Cc1cncs1)C(=O)CCC(c1cc2cc(-c3ccccc3F)ccc2nc1N)C1CCOCC1 (centres unmarked) . 2.51

I would be grateful if you could share the reported log10(IC50) for Cn1ccnc1CN(CCC(C)(C)C)C(=O)CCC(c1cc2cc(-c3ccccc3)ccc2nc1N)C1CCOCC1 (centres unmarked) . 2.51

I would be grateful if you could share the reported log10(IC50) for CCOc1cc2nc(N)c(C(CCn3cc(C(C)(C)C)nn3)C3CCOCC3)cc2cc1-c1ccccc1F (centres unmarked) . 2.18

I would be grateful if you could share the reported log10(IC50) for CC(C)(C)CCNC(=O)CCC(c1cc2cc(-c3ccccc3F)ccc2nc1N)C1CCOCC1 (centres unmarked) . 2.41

I would be grateful if you could share the reported log10(IC50) for CC(C)(C)CCN(CCN1CCOCC1)C(=O)CCC(c1cc2cc(-c3ccccc3F)ccc2nc1N)C1CCOCC1 (centres unmarked) . 2.57

I would be grateful if you could share the reported log10(IC50) for COc1cc2nc(N)c(C(CCC(=O)N(CCN3CCOCC3)C3CCCCC3)C3CCOCC3)cc2cc1-c1ccccc1F (centres unmarked) . 3.34

I would be grateful if you could share the reported log10(IC50) for Cn1ccnc1CN(CCC(C)(C)C)C(=O)CCC(c1cc2cc(-c3ccc[nH]3)ccc2nc1N)C1CCOCC1 (centres unmarked) . 3.15

I would be grateful if you could share the reported log10(IC50) for CC(C)(C)CCN(CCCC(c1cc2cc(-c3ccccc3F)ccc2nc1N)C1CCOCC1)Cc1ccccn1 (centres unmarked) . 2.94

I would be grateful if you could share the reported log10(IC50) for Cn1ccnc1CN(CCC(C)(C)C)C(=O)CCC(c1cc2cc(-c3ccccc3F)ccc2nc1N)C1CCOCC1 (centres unmarked) . 2.54

I would be grateful if you could share the reported log10(IC50) for CCOc1ccccc1-c1ccc2nc(N)c(C(CCC(=O)N(CCC(C)(C)C)Cc3nccn3C)C3CCOCC3)cc2c1 (centres unmarked) . 2.51

I would be grateful if you could share the reported log10(IC50) for Cn1ccnc1N(CCC(C)(C)C)C(=O)CCC(c1cc2cc(-c3ccccn3)ccc2nc1N)C1CCOCC1 (centres unmarked) . 3.26

I would be grateful if you could share the reported log10(IC50) for CC(C)(C)OCCNCCCC(c1cc2cc(-c3ccccc3F)ccc2nc1N)C1CCOCC1 (centres unmarked) . 2.92

I would be grateful if you could share the reported log10(IC50) for CC(C)(C)CCN(Cc1ccccn1)C(=O)CCC(c1cc2cc(-c3ccccc3F)ccc2nc1N)C1CCOCC1 (centres unmarked) . 2.52
